For each entry below, report its TGI value.
System: SW-620 colon
Assay: NCI tumour cell line growth inhibition, 48 h
// units = µM; emit number, no label

Send back SW-620 colon TGI of COc1ccc(N(CC(=O)NCCC[Te]c2ccccc2)C(=O)CNC(=O)OC(C)(C)C)cc1 only.
14.4

Send back SW-620 colon TGI of COC(=O)[C@H]1CCCN1C(=O)[C@H]1CCCN1C(=O)[C@@H](Cc1c[nH]c2ccccc12)NC(=S)Nc1cc(C(F)(F)F)cc(C(F)(F)F)c1 only.
4.62

Send back SW-620 colon TGI of Cc1ccccc1NC(=O)C(=O)C(C#N)c1ccccc1C (stereo not given) only.
36.5

Send back SW-620 colon TGI of CCOC(=O)C(C(=O)OCC)=C1NC2(c3ccccc3Nc3ccccc32)C(C#N)S1 (stereo not given) only.
51.6

* * *

Test system: SR leukemia
Assay: NCI tumour cell line growth inhibition, 48 h; in the data active = GI50 below about 0.43 µM; inactive = the rest
Where a SMILES comes first, the peptide text is derived from it. The star is where a group is joined. Palmitoyl = CCCCCCCCCCCCCCCC(=O)*
The categories you may choose from are active, inactive

// return assay outcome for CC1(C)CC(=O)C2=C(C1)OC(N)=C(c1nc(-c3ccccc3)cs1)C2c1ccc(Br)cc1 (stereo not drawn)
inactive

// return assay outcome for COc1ccc(N(CC(=O)NCCC[Te]c2ccccc2)C(=O)CNC(=O)OC(C)(C)C)cc1
inactive

// return assay outcome for COc1ccc(-c2nc(/C=C3\SC(=NCc4ccccc4)NC3=O)c3ccccn23)cc1
inactive

// return assay outcome for COc1cc(/C=C/C(=O)c2cccc(-n3cc(-c4ccc(Cl)cc4)[nH]c3=O)c2)cc(OC)c1OC
inactive

// return assay outcome for Cc1cc(C#Cc2ccc(C(C)(C)C)cc2)ccc1-n1c(/C=C/c2ccc(O)cc2O)nc2ccccc2c1=O
inactive

// return assay outcome for C[C@]12CC[C@@H]3c4cc(OC(F)F)c(OS(N)(=O)=O)cc4CC[C@H]3[C@@H]1CC[C@@H]2O
active

// return assay outcome for CCCCCCCCCCCCCCCC(=O)N1CCCC1C(=O)NCC(=O)NC(Cc1ccccc1)C(=O)NC(C)C(=O)NC(CO)C(=O)NC(Cc1ccc(O)cc1)C(=O)NC(CCCCN)C(=O)NC(CC(C)C)C(=O)NC(CCCN=C(N)N)C(=O)N1CCCC1C(=O)NCC(N)=O (stereo not drawn) (Palmitoyl-PGFASYKLRPG-NH2; configuration not given here)
inactive

// return assay outcome for CC(=O)NCc1cccc(C#Cc2cncnc2Nc2ccc(OCc3cccc(F)c3)c(Cl)c2)c1
inactive

// return assay outcome for CCCCCO/N=C\c1c2c(O)c3c(O)c(C)c4c(c3c1O)C(=O)C(C)(O/C=C\C(OC)C(C)C(OC(C)=O)C(C)C(O)C(C)C(O)C(C)/C=C\C=C(\C)C(=O)N2)O4 (stereo not drawn)
inactive

// return assay outcome for COc1ncnc(NS(=O)(=O)c2ccc(N=C3C(=O)N(CN4CCN(c5c(F)cc6c(=O)c(C(=O)O)cn(C7CC7)c6c5OC)CC4C)c4ccc(Br)cc43)cc2)c1OC (stereo not drawn)
inactive

// return assay outcome for COC1=C(OC)C(=O)C(SC/C=C(\C)CCCC(C)CCCC(C)CCCC(C)C)=CC1=O (stereo not drawn)
inactive

// return assay outcome for O=C(/C=C/c1cccc(O)c1)c1cccc(-n2cc(-c3ccccc3)[nH]c2=O)c1
inactive

// return assay outcome for CCC1(O)C(=O)OCc2c1cc1n(c2=O)Cc2cc3c(NC(=O)CN)cccc3nc2-1 (stereo not drawn)
active

* * *

System: UACC-257 melanoma
Assay: NCI tumour cell line growth inhibition, 48 h
Measured Metric: GI50

Give me measured GI50, please, for this compound: COC(=O)[C@H]1CCCN1C(=O)[C@H]1CCCN1C(=O)[C@@H](Cc1c[nH]c2ccccc12)NC(=S)Nc1cc(C(F)(F)F)cc(C(F)(F)F)c1
1.85 µM

Give me measured GI50, please, for this compound: N#CCCN1C/C(=C/c2ccc(Cl)cc2)C(=O)/C(=C/c2ccc(Cl)cc2)C1
2.05 µM

Give me measured GI50, please, for this compound: COC1=C(OC)C(=O)C(SC/C=C(\C)CCCC(C)CCCC(C)CCCC(C)C)=CC1=O (stereo not given)
2.71 µM

Give me measured GI50, please, for this compound: Cc1cc(C#Cc2ccc(C(C)(C)C)cc2)ccc1-n1c(/C=C/c2ccc(O)cc2O)nc2ccccc2c1=O
6.92 µM

Give me measured GI50, please, for this compound: COc1cc2nc(-c3cc(F)ccc3O)nc(N[C@@H]3CNC[C@H]3C(C)(C)O)c2cc1OC
1.69 µM

* * *

System: SNB-19 CNS
Experiment: NCI tumour cell line growth inhibition, 48 h
For each entry below, report its GI50 value.

Send back SNB-19 CNS GI50 of CC(=O)NCc1cccc(C#Cc2cncnc2Nc2ccc(OCc3cccc(F)c3)c(Cl)c2)c1 only.
> 21800 nM

Send back SNB-19 CNS GI50 of COc1ccc(N(CC(=O)NCCC[Te]c2ccccc2)C(=O)CNC(=O)OC(C)(C)C)cc1 only.
875 nM

Send back SNB-19 CNS GI50 of COc1ccc(/C=C(\C#N)n2nnc3c(F)cccc32)cc1 only.
412 nM

Send back SNB-19 CNS GI50 of C/C(=C\c1cnc(C)s1)[C@@H]1C[C@@H]2O[C@@H]2CCC[C@H](C)[C@H](O)[C@@H](C)C(=O)C(C)(C)[C@@H](O)CC(=O)O1 only.
< 10 nM

Send back SNB-19 CNS GI50 of Cc1cc(N(CCCNc2ccnc3cc(Cl)ccc23)Cc2ccco2)nc(N2CCN(C)CC2)n1 only.
5000 nM

Send back SNB-19 CNS GI50 of C/C(=N/N=C(\[O-])c1ccncc1)C(F)(F)F.C/C(=N\N=C(/[O-])c1ccncc1)C(F)(F)F.[Ni+2] only.
> 1000 nM

Send back SNB-19 CNS GI50 of Cn1cc(C2=C(c3cccc(OC[C@@H](O)CO)c3)C(=O)NC2=O)c2ccccc21 only.
> 25000 nM

Send back SNB-19 CNS GI50 of C=CCN1CC(=O)N2[C@@H](Cc3ccc(O)cc3F)C(=O)N(Cc3cccc(N4CC(N5CCN(CC)CC5)C4)n3)C[C@@H]2N1C(=O)NCc1ccccc1 only.
32.4 nM

Send back SNB-19 CNS GI50 of c1ccc2cc(-c3n(Cc4ccc5ccccc5n4)c4ccccc4[n+]3Cc3ccc4ccccc4n3)ccc2c1 only.
315 nM

Send back SNB-19 CNS GI50 of Oc1c(I)cc(I)c2cccnc12 only.
3330 nM

Send back SNB-19 CNS GI50 of COc1cc2nc(-c3cc(F)ccc3O)nc(N[C@@H]3CNC[C@H]3C(C)(C)O)c2cc1OC only.
1910 nM

* * *

Test system: CAKI-1 renal
Assay: NCI tumour cell line growth inhibition, 48 h
Measured Metric: TGI

Give me measured TGI, please, for this compound: O=C(O)CCC(=O)c1ccc2sc3ccccc3c2c1
> 100 µM

Give me measured TGI, please, for this compound: OCCNC1c2cc(Cl)ccc2-c2c(Cl)cc(Cl)cc21 (stereo not given)
> 100 µM

Give me measured TGI, please, for this compound: CCOC(=O)/C(C#N)=C(O)/C(=C\c1ccc(Br)cc1)NC(=O)c1ccccc1
> 100 µM

Give me measured TGI, please, for this compound: O=[N+]([O-])c1ccc(-c2nc3ccc(Cl)cc3[nH]2)cc1
> 100 µM

Give me measured TGI, please, for this compound: NC(=O)C(=CNC(=S)Nc1ccccc1)C(N)=O
> 100 µM

Give me measured TGI, please, for this compound: CCCCCCNC(=O)Oc1ccc(/C(=C(\C)c2ccc(Cl)cc2)c2ccc(OCCN3CCCCC3)cc2)cc1
8.25 µM

Give me measured TGI, please, for this compound: CCOC(=O)C(=CNc1ccc(NC2=NCC(C)S2)cc1)C(=O)OCC (stereo not given)
> 100 µM

Give me measured TGI, please, for this compound: CC(N)Cc1ccc(Cl)c(Cl)c1 (stereo not given)
74.5 µM

Give me measured TGI, please, for this compound: O=C1Cc2c([nH]c3ccc(Br)cc23)-c2cc(O)c(O)cc2N1
> 100 µM

Give me measured TGI, please, for this compound: CCc1c(C)c(C#N)c(=S)n(C2OC(COC(C)=O)C(OC(C)=O)C(OC(C)=O)C2OC(C)=O)c1-c1ccccc1 (stereo not given)
> 100 µM

Give me measured TGI, please, for this compound: CC(=O)NC1C(OCc2ccccc2)OC(CO)C(O)C1OC(C)C(=O)NC(C)C(=O)NC(CCC(=O)NCCCCNc1c2ccccc2nc2cccc([N+](=O)[O-])c12)C(N)=O (stereo not given)
0.307 µM

Give me measured TGI, please, for this compound: CC1(c2nc3ccccc3[nH]2)CCC(C(=O)O)C(C)(C)O1 (stereo not given)
> 100 µM

Give me measured TGI, please, for this compound: C/C=C/C#CC#C/C=C/C=C/C(O)CCO (stereo not given)
> 23.1 µM

Give me measured TGI, please, for this compound: [O-]c1c2cc(-[n+]3c(-c4ccccc4)cc(-c4ccccc4)cc3-c3ccccc3)cc1COCCOCCOCCOCCOC2
> 100 µM

Give me measured TGI, please, for this compound: CCN(CC)c1ccc2c(c1)Oc1ccc(N(CC)CC)cc1C21Oc2ccccc2-c2c1c1ccccc1n2CC (stereo not given)
> 100 µM

Give me measured TGI, please, for this compound: Cc1cc[n+]2c(c1)-c1cc(C)cc[n+]1CC2
> 100 µM

Give me measured TGI, please, for this compound: OCCN(CCO)c1ncnc2nc[nH]c12
> 100 µM

Give me measured TGI, please, for this compound: COc1ncnc(NS(=O)(=O)c2ccc(N=C3C(=O)N(CN4CCN(c5c(F)cc6c(=O)c(C(=O)O)cn(C7CC7)c6c5OC)CC4C)c4ccc(Br)cc43)cc2)c1OC (stereo not given)
> 50 µM

Give me measured TGI, please, for this compound: CN(C)C(=NCc1ccccc1)NC#N
> 100 µM

Give me measured TGI, please, for this compound: COC(=O)c1ccc2c(c1)S/C(=C/c1ccc3ccc4cccc5ccc1c3c45)S2
> 100 µM
